Recorded growth, one value per entry.
# Test system: BT-549 breast
# ASSAY_PROTOCOL: NCI-60 one-dose screen, 48 h (100 = growth as untreated, 0 = no growth, -100 = all killed)
# ASSAY_SETUP: 10 µM unless noted
About 83,000 compounds went through this panel and 20% of them were active in at least one assay; those are over-represented in the sample as a whole. Calls of active or inactive are those of the source. How the source made its calls: active means growth percent below 10; inactive means the rest.

The following molecules have reported results that may help.
CSc1nc(-c2cccs2)c2c(N)[nH]nc2n1 | 96.4% (inactive)
COC(=O)c1cc2c3c(cc(O)c2[nH]1)N(C(=O)C1Cc2cc(OC)c(OC)c(OC)c2N1)CC3CCl (stereo not drawn) | -84.6% (active)
O=C1CCC23OC(C(O)c4ccccc4N12)C1C(Br)=NOC13 (stereo not drawn) | 102% (inactive)
S=c1ssnc1-c1cc2ccccc2o1 | 103% (inactive)
COc1ccc2[nH]c(=O)c(/C=C/C(=O)c3ccccc3OC)cc2c1 | 18.9% (inactive)
FC(F)(F)c1ccc2c(Nc3cccc(C4CC(c5ccccc5)=NN4c4ccc(Cl)cc4)c3)ccnc2c1 (stereo not drawn) | 55.7% (inactive)
CCCCc1ccc(N=Nc2ccc(OCC[N+](C)(C)C)cc2)cc1 | 56.4% (inactive)
COc1ccc2c(c1)OC13Oc4cc(OC)ccc4C=C1CCCCC3=C2 | 92% (inactive)

Param item = "CCC1=C[C@H]2CN(CCc3c([nH]c4ccccc34)[C@@](C(=O)OC)(c3cc4c(cc3OC)N(C)[C@H]3[C@@](O)(C(=O)OC)[C@H](OC(C)=O)[C@]5(CC)[C@@H]6C[C@@H]6CN6CC[C@]43[C@@H]65)C2)C1" ; retrieve measured growth.
16.1% (inactive)

What do you have for "COc1ccc(-c2cs/c(=N\N=C\c3ccc(O)cc3O)n2/N=C/c2ccc(O)cc2O)cc1" ?
-10.4% (active)

Then what about the molecule "O=C(O)c1cc(N=Nc2ccc(-c3ccc(N=Nc4c(S(=O)(=O)O)cc5ccc(Nc6ccccc6)cc5c4O)cc3)cc2)ccc1O" ?
115% (inactive)

Also, "Cc1cc(C)c(NC(=O)c2sc3nc4c(cc3c2N)CCCCCC4)c(C)c1" please.
53.6% (inactive)

Input COc1cc(C2=NNC(c3ccc(N(C)C)cc3)C2)cc(OC)c1OC (stereo not drawn)
35.1% (inactive)

# repeat for "N#CCNc1ccc(C(=O)O)cc1"
106% (inactive)

What do we get for "CC[C@]12C=CCN3CC[C@@]4(c5cc(NC(=O)CCC(=O)O[C@H]6CC[C@H]7[C@@H]8CC[C@H]9CC(=O)CC[C@]9(C)[C@H]8CC[C@]67C)c(OC)cc5N(C)[C@H]4[C@@](O)(C(=O)OC)[C@@H]1OC(C)=O)[C@@H]32" ?
58.6% (inactive)

Note, next up: "C=C1C(=O)O[C@H]2[C@H]1CC/C(COC(=O)NCc1nc3ccccc3[nH]1)=C\CC[C@@]1(C)O[C@@H]21"
86.7% (inactive)

Then "O=c1[nH]nc(-c2ccc(Br)cc2)c2sc(NC(=S)Nc3ccc(Cl)cc3)nc12" ?
92.6% (inactive)

"C#Cc1ccccc1NC(=O)c1sc2nc3c(cc2c1N)CCCCCC3" ?
37.3% (inactive)

---

# System: NCI-H322M lung
# ASSAY_PROTOCOL: NCI-60 one-dose screen, 48 h
# ASSAY_SETUP: 10 µM unless noted
# Protocol: Growth inhibition of the NCI-H322M human Non-Small Cell Lung tumor cell line is measured as a screen for anti-cancer activity. Cells are grown in 96 well plates and exposed to the test compound for 48 hours. Compounds are tested at a single concentration, which is 10^-5 M for most compounds. The reported endpoint is percent growth (GI% or GIPRCNT), where numbers from 0 - 100% represent growth inhibition, and numbers from -100% - 0 represent cell death. […]
Compounds without any hit were thinned out: in the full panel of roughly 83,000, 20% have a hit. Calls of active or inactive are those of the source. How the source made its calls: active means growth percent below 10; inactive means the rest.
Lab note: assign the record to one of 1 (yes) = active, 0 (no) = inactive

Cc1c(Br)cccc1NC(=O)c1sc2nc3c(cc2c1N)CN(Cc1ccccc1)CC3 | 0 (no)
O=CN1N=C(c2ccc(F)cc2)CC1c1cccc(Nc2ccnc3cc(C(F)(F)F)ccc23)c1 (centres undefined) | 0 (no)
COc1cc(-c2csc(NC(=O)Nc3cc(Cl)cc(Cl)c3)n2)cc(OC)c1OC | 1 (yes)

I would be grateful if you could indicate the recorded call for "COc1cc(/C=C/C(=O)c2ccc(NC(=O)CSc3nnc(-c4cc(OC)c(OC)c(OC)c4)n3-c3ccccc3)cc2)cc(OC)c1OC" .
0 (no)

Lookup "CCOC(=O)C1CCN(S(=O)(=O)/N=C2/NC(=O)NC2=C(Cl)Cl)CC1"
0 (no)

Again, but for "CN(C)CCCn1c2c(c3cc(-c4ccco4)ccc3c1=O)C(=O)c1ccccc1-2"
0 (no)

Subsequent entry: "NS(=O)(=O)c1ccc(-n2nc(-c3ccccc3)ccc2=O)cc1"
0 (no)

And "O=C(Nc1cccc(-c2cccc(F)c2)c1)C1CCN(Cc2cccc3cccnc23)CC1" ?
0 (no)

Also "O=[N+]([O-])c1ccc(Oc2ccc(-c3ccccc3)cc2)cc1" , if possible.
0 (no)

---

# System: UO-31 renal
# ASSAY_PROTOCOL: NCI-60 one-dose screen, 48 h (100 = growth as untreated, 0 = no growth, -100 = all killed)
# ASSAY_SETUP: 10 µM unless noted
Compounds without any hit were thinned out: in the full panel of roughly 83,000, 20% have a hit.
Friendly reminder: growth below 80% is condition met, at or above is condition not met.

Worked examples, 3 compounds total:
CC(=O)OCC1OC(OC2C(COC(C)=O)OC(OCCC[S-])C(OC(C)=O)C2OC(C)=O)C(OC(C)=O)C(OC(C)=O)C1OC(C)=O.[Au+].c1ccc(CN2[CH-]N(Cc3ccccc3)C(c3ccccc3)=C2c2ccccc2)cc1 (stereo not given) | condition met
CCCCOc1nc2ccc(C)cc2cc1/C=C/C(=O)/C=C/c1ccc2c(c1)OCO2 | condition met
CCCCCOC(=O)c1ccccc1O | condition not met

Turning now to a further record.
is_below(growth, 80%) for "NC(=O)C(O)(c1ccccc1)c1ccccc1" ?
condition not met

---

# Test system: SK-MEL-5 melanoma
# ASSAY_PROTOCOL: NCI-60 one-dose screen, 48 h
# ASSAY_SETUP: 10 µM unless noted
About 83,000 compounds went through this panel and 20% of them were active in at least one assay; those are over-represented in the sample as a whole. Calls of active or inactive are those of the source. The calls were made as follows: active = growth percent below 10; inactive = the rest.
Log the outcome using a class from active, inactive

Cc1nn(-c2ccc(-c3ccc(OC(F)(F)F)cc3)cc2)c2nc(-c3ccccc3)nc(N)c12 | inactive
CC(=O)c1ccc(NC(=O)CSc2nnc(-c3cc(-c4ccc(Cl)cc4)nc4ccccc34)o2)cc1 | inactive
COc1cc(C)ccc1Oc1nc(Nc2ccc(N3CCOCC3)cc2)ncc1N=Cc1cc(C(F)(F)F)cc(C(F)(F)F)c1 | inactive

Call for entry "O=[N+]([O-])c1cccc(CN(Cc2cccc([N+](=O)[O-])c2O)c2ccccc2)c1O" :
inactive

---

Property: growth; scope: individual molecules
# Test system: SN12C renal
# ASSAY_PROTOCOL: NCI-60 one-dose screen, 48 h (100 = growth as untreated, 0 = no growth, -100 = all killed)
# ASSAY_SETUP: 10 µM unless noted
This is part of a sample that, as a whole, favours compounds with a hit. Of some 83,000 tested, about 20% had one in any assay.
# unit: % | format: bare number

See these solved cases before continuing.
C#CCN(CCCOc1ccc(Cl)cc1Cl)CCCSC(=O)CCCCCN1/C(=C\C=C2/CCCC(/C=C/C3=[N+](CCCCCC(=O)[O-])c4ccccc4C3(C)C)=C2Cl)C(C)(C)c2ccccc21 | 5.06
COC(=O)c1nc(-c2ccccc2)oc1S(=O)(=O)n1nc(C)cc1N | 58.5
c1ccc2nc(N3CCOCC3)c(N3CCCCC3)nc2c1 | 96.2
COc1ccc(NC(=O)c2sc3nc(C)c(C(C)=O)cc3c2N)cc1 | 101
OCCNc1nc(NCCO)nc(Nc2ccc(C3=NN(c4cc(Cl)cc(Cl)c4)C(c4ccc(C(F)(F)F)cc4)C3)cc2)n1 (stereo unspecified) | 59.6

Need growth, item "CC(=O)Nc1ccc2c(c1)Cc1cc(F)ccc1-2"
107

What do we get for "Cc1cc(NC(=O)CNc2nc(Oc3ccc(F)cc3)nc(-c3ccc(F)cc3)n2)ccc1Cl" ?
100

Another molecule to check: "CC(=O)Oc1ccc(O)cc1"
99.9

Now give it for COc1cc(C2=NN(C(C)=O)C(c3cccc(Nc4ccnc5cc(C(F)(F)F)ccc45)c3)C2)cc(OC)c1OC (stereo unspecified) too.
64.3

Then COc1ccc2c(c1)C1(C(=O)N2)C(C#N)=C(c2ccccc2)Nc2c1c(-c1ccccc1)nn2-c1ccccc1 (stereo unspecified) ?
1.61

Follow-up item: "CN(C)CCCn1c2c(c3cc(-c4cccc(S(N)(=O)=O)c4)ccc3c1=O)C(=O)c1ccccc1-2"
78.3

Moving on to "CSc1nc(-c2ccco2)c2c(N)[nH]nc2n1"
109

Repeat with "COc1ccc2[nH]c(=O)c(/C=C/C(=O)c3ccccc3OC)cc2c1"
8.57

Check "CCCCc1n(Cc2ccc3ccccc3c2)c2ccccc2[n+]1Cc1ccc2ccccc2c1" too.
-92.3

Okay, and "O=C(CSC(=S)N1CCCCC1)Nc1ccccc1" ?
106
